Values compiled from PubChem BioAssay AID1159580.

# assayOverview: chemical genetic growth profiling, strain panel (AID 1159580);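 also: tested at 20 µM; growth read once vehicle control cultures reached saturation at 30 °C; 1 = growth at the plate median or of vehicle wells; lower values mean less growth of the strain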
# measurementConditions: S. cerevisiae deletion strains, growth OD, locus YCL061C, strain MRC1
In all, about 5,500 compounds went through this assay and about 2,000 (36%) were called active. About 18% were inconclusive and are not listed. Rule as the data show it: active = normalized growth mostly below about 0.91 (no sharp cut-off); inconclusive = no clear call, values can overlap the other calls; inactive = mostly above about 0.92. The list shows a part of the results.
Classes used: active, inactive

| compound | assignedCategory |
| --- | --- |
| CN(Cc1cnc2nc(N)nc(N)c2n1)c1ccc(C(=O)NC(CCC(=O)O)C(=O)O)cc1 (configuration not stated) | active |
| CCOC(=O)c1c(C)csc1N | inactive |
| COC(=O)c1ccc(C#Cc2ccccc2)o1 | active |
| CC1=C(/C=C/C(C)=C/C=C/C(C)=C/C(=O)O)C(C)(C)CCC1 | inactive |
| Cc1onc(-c2ccccc2Cl)c1C(=O)Nc1ccc(S(=O)(=O)Nc2nccs2)cc1 | inactive |
| c1ccc2[nH]c(-c3cscn3)nc2c1 | inactive |
| Nc1nc2c(c(=O)[nH]1)N(C=O)C(CNc1ccc(C(=O)N[C@@H](CCC(=O)O)C(=O)O)cc1)CN2 (some centres not stated) | inactive |
| O=C(O)c1cc(=O)c2c(OCC(O)COc3cccc4oc(C(=O)O)cc(=O)c34)cccc2o1 | inactive |
| O=C(O)CCCCC1SCC2NC(=O)NC21 (configuration not stated) | inactive |
| COc1ccc(/C=C/C(=O)c2ccc(O)cc2O)cc1 | active |
| CCOc1ccc2c(c1)C(C)=CC(C)(C)N2 | inactive |
| O=c1cccc2n1C[C@H]1CNCC2C1 | inactive |

----------
# assayOverview: chemical genetic growth profiling, strain panel (AID 1159580)
# measurementConditions: S. cerevisiae deletion strains, growth OD, locus YLR258W, strain gsy2, hits give low values
In all, about 5,500 compounds went through this assay and about 2,000 (36%) were called active. Not shown: some 18% with an inconclusive outcome. Some of the results follow.
normalized growth values for the compounds below.

| compound | normalized growth |
| --- | --- |
| CCOC(=O)C1=C[C@]2(CC)CCCN3CCc4c(n1c1ccccc41)[C@@H]32 | 1.02 |
| CCOC(=O)c1ccc(N)cc1 | 0.998 |
| CC1(C)O[C@@H]2CC3C4CCC5=CC(=O)C=C[C@]5(C)C4[C@@H](O)C[C@]3(C)[C@]2(C(=O)CO)O1 (some centres not stated) | 1 |
| CN1CCc2cccc3c2C1Cc1ccc(O)c(O)c1-3 (configuration not stated) | 0.958 |
| CCOc1ccc2c(c1)C(C)=CC(C)(C)N2 | 0.997 |
| O=C(/C=C/c1ccc(O)c(O)c1)O[C@@H]1C[C@](O)(C(=O)O)C[C@@H](O)[C@H]1O | 0.985 |
| CC[C@]1(O)CC2CN(CCc3c([nH]c4ccccc34)[C@@](C(=O)OC)(c3cc4c(cc3OC)N(C=O)[C@H]3[C@@](O)(C(=O)OC)[C@H](OC(C)=O)[C@]5(CC)C=CCN6CC[C@]43[C@@H]65)C2)C1 (some centres not stated) | 0.994 |
| CC1=C(/C=C/C(C)=C/C=C/C(C)=C/CO)C(C)(C)CCC1 | 1.03 |
| CCN(CC)CCOC(=O)C(Cc1cccc2ccccc12)CC1CCCO1 (configuration not stated) | 1 |
| O=C(O)P(=O)(O)O | 1 |
| C[C@@H]1CC2C3CCC4=CC(=O)C=C[C@]4(C)[C@@]3(F)[C@@H](O)C[C@]2(C)[C@@]1(O)C(=O)COP(=O)(O)O (some centres not stated) | 1 |
| O=C(NC(=O)c1c(F)cccc1F)Nc1cc(Cl)c(OC(F)(F)C(F)C(F)(F)F)cc1Cl (configuration not stated) | 0.999 |

----------
# assayOverview: chemical genetic growth profiling, strain panel (AID 1159580);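 also: tested at 20 µM; growth read once vehicle control cultures reached saturation at 30 °C; 1 = growth at the plate median or of vehicle wells; lower values mean less growth of the strain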
# measurementConditions: S. cerevisiae deletion strains, growth OD, locus YMR277W, strain FCP1, hits give low values
Hit rate of the full screen: of about 5,500 compounds, about 2,000 (36%) were called active. Roughly 18% stayed inconclusive and do not appear here. The list shows a part of the results.

| givenSmiles | normalized growth |
| --- | --- |
| COCCOc1ccccc1NC(=S)SCCSC(=S)Nc1ccccc1OCCOC | 0.984 |
| Cc1onc(-c2ccccc2Cl)c1-c1nc2ccccc2c(=O)o1 | 0.987 |
| O=C(CO/N=C\c1ccc(Cl)cc1Cl)NNC(=S)Nc1cc(Cl)ccc1Cl | 1 |
| CSc1cccc(N2C(=O)CC(c3c(Cl)cccc3Cl)CC2=O)c1 | 0.983 |
| CC(C)(O)C#Cc1ccc(/C=N\Nc2ccccc2)cc1 | 0.963 |
| O=S(=O)(Nc1cc(C(F)(F)F)ccc1F)c1cc(C(F)(F)F)ccc1Cl | 0.944 |

----------
normalized growth values for the compounds below.
# assayOverview: chemical genetic growth profiling, strain panel (AID 1159580);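 also: tested at 20 µM; growth read once vehicle control cultures reached saturation at 30 °C; 1 = growth at the plate median or of vehicle wells; lower values mean less growth of the strain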
# measurementConditions: S. cerevisiae deletion strains, growth OD, locus YDL028C, strain MPS1, hits give low values
Out of some 5,500 compounds screened, about 2,000 (36%) were called active. Not shown: some 18% with an inconclusive outcome. Some of the results follow.

| compound | normalized growth |
| --- | --- |
| O=C(Nc1ccccn1)c1cc(-c2ccccc2)c(C(F)(F)F)s1 | 0.95 |
| CC(=O)C(Sc1nc2ccccc2s1)C(C)=O | 0.906 |
| COc1cc(C(=O)Oc2c(Cl)cc(Cl)cc2C=Nc2ccc([N+](=O)[O-])cc2C#N)cc(OC)c1OC | 0.977 |
| CC(C)(O)C#Cc1ccc(/C=N\Nc2ccccc2)cc1 | 0.952 |
| CSc1cccc(N2C(=O)CC(c3c(Cl)cccc3Cl)CC2=O)c1 | 0.997 |
| CCCC1c2ccsc2CCN1C(=S)Nc1ccc(Cl)cc1Cl (stereo not drawn) | 0.971 |
| COc1ccccc1C(C[N+](=O)[O-])c1c(N)n(C)c(=O)n(C)c1=O (stereo not drawn) | 0.948 |
| CCC1CCC(C)N(C(=S)Nc2ccc(Br)cc2C)C1 (stereo not drawn) | 0.961 |

----------
# assayOverview: chemical genetic growth profiling, strain panel (AID 1159580);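 also: tested at 20 µM; growth read once vehicle control cultures reached saturation at 30 °C; 1 = growth at the plate median or of vehicle wells; lower values mean less growth of the strain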
# measurementConditions: S. cerevisiae deletion strains, growth OD, locus YNR049C, strain mso1
The whole screen tested about 5,500 compounds, of which about 2,000 (36%) were called active. About 18% were inconclusive and are not listed. No stated cut-off is given here; in the data, active means normalized growth mostly below about 0.91 (no sharp cut-off); inconclusive means no clear call, values can overlap the other calls; inactive means mostly above about 0.92. The list shows a part of the results.
Classes used: 1 for active, 0 for inactive

| compound | assignedCategory |
| --- | --- |
| Cc1cccc(CN2CCN(C(c3ccccc3)c3ccc(Cl)cc3)CC2)c1 (stereo unspecified) | 0 |
| CC12CCC(CC1)C(C)(C)O2 | 0 |
| C#C[C@]1(O)CCC2C3CCc4cc(O)ccc4C3CC[C@@]21C (stereo partly specified) | 0 |
| CCOc1ccc2c(c1)C(C)=CC(C)(C)N2 | 0 |
| C[C@]12CCC3c4ccc(OS(=O)(=O)O)cc4CCC3C1CCC2=O (stereo partly specified) | 0 |
| CC(COc1ccccc1)N(CCCl)Cc1ccccc1 (stereo unspecified) | 0 |
| O=C1N=C(O)CN1/N=C\c1ccc(-c2ccc([N+](=O)[O-])cc2)o1 | 0 |
| CCCN(CCC)C(=O)C(CCC(=O)O)NC(=O)c1ccccc1 (stereo unspecified) | 0 |
| CC(=O)O[C@H]1C[C@@H](OC(C)=O)C(C)(C)C2C[C@@H](OC(C)=O)[C@]3(C)C(CC[C@@]4(C)[C@H](c5ccoc5)C(=O)[C@H]5O[C@]543)[C@]21C (stereo partly specified) | 0 |
| O=C(O)c1cc(=O)c2c(OCC(O)COc3cccc4oc(C(=O)O)cc(=O)c34)cccc2o1 | 0 |
| Nc1nccs1 | 0 |
| CC1(C)CC2C1CCC1(C)OC1CCC2(C)O (stereo unspecified) | 0 |
| NC(=O)c1ccc(N)nc1 | 0 |
| C[C@@H]1C[C@@H]([C@H](O)CC2CC(=O)NC(=O)C2)C(=O)[C@@H](C)C1 | 1 |
| CN(C)CCCO[C@H]1[C@@H](C(O)CO)OC2OC(C)(C)O[C@@H]21 (stereo partly specified) | 0 |
| O=C(NC(=O)c1c(F)cccc1F)Nc1cc(Cl)c(OC(F)(F)C(F)C(F)(F)F)cc1Cl (stereo unspecified) | 0 |
| CC[C@@]1(C2O[C@@H](C3O[C@@](O)(CC)[C@H](C)C[C@@H]3C)C[C@@H]2C)CC[C@H]([C@]2(C)CCC3(C[C@H](O)[C@@H](C)[C@@H]([C@H](C)[C@@H](OC)[C@H](C)C(=O)O)O3)O2)O1 (stereo partly specified) | 0 |
| O=C(NC(Cc1cc(=O)[nH]c2ccccc12)C(=O)O)c1ccc(Cl)cc1 (stereo unspecified) | 0 |
| CCOC(=O)c1ccc(N)cc1 | 0 |
| CO[C@@H]1[C@@H](O[C@@H]2O[C@H](C)[C@@H](O[C@H]3C[C@@](C)(O)[C@H](O)[C@H](C)O3)[C@H](N(C)C)[C@H]2O)[C@@H](CC=O)C[C@@H](C)[C@@H](O[C@H]2CC[C@H](N(C)C)[C@@H](C)O2)/C=C/C=C/C[C@H](C)OC(=O)C[C@H]1O | 0 |
| CCOP(=S)(OCC)Oc1ccc2c(C)c(Cl)c(=O)oc2c1 | 0 |
| CC12CCCC(O)(C1)C1CC(C)(C)C1CC2 (stereo unspecified) | 0 |
| Oc1ccc(/C=C/c2cc(O)cc(O)c2)cc1 | 0 |
| CN(Cc1cc(Br)cc(Br)c1N)C1CCCCC1 | 0 |
| CC12CCC3C(CC=C4CC(O)CCC43C)C1CCC2=O (stereo unspecified) | 0 |
| O=C1OCCN1/N=C\c1ccc([N+](=O)[O-])o1 | 0 |
